experiment: folding stability dG unfold (combined trypsin and chymotrypsin); higher = more stable
MEASURED METRIC: folding stability dG unfold (kcal/mol)
Write the value in kcal/mol as a bare number.

Inquiry: Consider the sequence shown here: SAGGSAGGSAGMVVSVDRATGTFTATDPALGTTTTVPGSEEEVRAYWAERFPDRPVTITASAGGSAGGSAGG [r11_614_JUSTAS] What is its recorded folding stability dG unfold?
Reply text: -0.0207

Inquiry: Consider the sequence shown here: SAGGSAGGSGMTVVTLEAEPETAEEAVAAAIQAIRDALPADETIASVEVSFDPATGKVTVVVESAGGSAGGS [r12_308_JUSTAS] What is its recorded folding stability dG unfold?
Reply text: 1.8

Inquiry: Consider the sequence shown here: SMKINVVINITLPDGTTVTSTLNLTESEIEKTIKEKIPSSYKVEITKKDPVDPAKLPPGSSINVDLTVNLSA [r9_803_JUSTAS] What is its recorded folding stability dG unfold?
Reply text: 1.59

Inquiry: Consider the sequence shown here: SAGGSAGGSAKTITITFLFDSPENAKDFVREIAQEDGMKIKVEWERDPEGWWWVTATIEVPSAGGSAGGSAG [r3_273_TrROS] What is its recorded folding stability dG unfold?
Reply text: 3.14

Inquiry: Consider the sequence shown here: SAGGSAGGSSSSTLISVEPSPGIVTVERPLSLDPVPVVERRIMTVSPSSSLSVTETSVFPVSLLSAGGSAGG [r6_970_JUSTAS] What is its recorded folding stability dG unfold?
Reply text: 1.02

Inquiry: Consider the sequence shown here: SIKIEPHPDGFFMLRFPDNGHKIMIRVDPEKGKVKIMFETPGQPVEQEIDPDEGTITIEFPNNKIEIPIKSA [r9_541_TrROS] What is its recorded folding stability dG unfold?
Reply text: 1.56

Inquiry: Consider the sequence shown here: SAGGSAGGSASAEEIAAKIEALFPVKVTVVREEPTPLGRPEVVIEVDAVGVPEELLEEVLKSAGGSAGGSAG [r3_40_JUSTAS] What is its recorded folding stability dG unfold?
Reply text: 0.559

Inquiry: Consider the sequence shown here: SAGGSAGGSAGKKPPKVKVLELTFTLEDGYKVTVRLVENEDGELFLEIRIEPLPELPEEKSAGGSAGGSAGG [r11_998_TrROS_Hall] What is its recorded folding stability dG unfold?
Reply text: 2.94

Inquiry: Consider the sequence shown here: SAGGGSMVNISKEELAKKIAKELGKDFPTENVKVKKEIYPEPVSIYTITIKVPGTNITLNVPITLPESAGGS [r16_42_JUSTAS] What is its recorded folding stability dG unfold?
Reply text: -0.226

Inquiry: Consider the sequence shown here: SAGGSGMTETIKLSDPKNGLSVTVTVTFDPATGSKSVTITVESSEEAKEKVKALLEEKGLPVTVTSSAGGSA [r2_30_JUSTAS] What is its recorded folding stability dG unfold?
Reply text: 1.27

Inquiry: Consider the sequence shown here: SAKKPKKVIEVTIVLPLEELKNMSLEELLKKILEELGIKEGEKVKIEVKLEEVEIDGKKYLVITVRIELSAG [r14_334_TrROS_Hall] What is its recorded folding stability dG unfold?
Reply text: 2.69

Inquiry: Consider the sequence shown here: SAGSKEFPFESEFEFEGYRVKVEVKVRVEFDENGKPTKNFKPEIKIEIKPLPPKPVITAEEALKLDPEKSAG [r14_442_TrMRF] What is its recorded folding stability dG unfold?
Reply text: 1.47

Inquiry: Consider the sequence shown here: SAGGSAGGSAGGSVTISYNPETGTVVISSPKNKKIITINAENYTPEEILEKAKEAGIDLSAGGSAGGSAGGS [r4_49_TrMRF] What is its recorded folding stability dG unfold?
Reply text: 1.64

Inquiry: Consider the sequence shown here: SAGGSAGGSSMPIYTVTVTYSDGTVRTYELTPEEIEAFAAEVPDAEVTELPPGKVEVTVKIPASAGGSAGGS [r20_231_JUSTAS] What is its recorded folding stability dG unfold?
Reply text: 2.33

Inquiry: Consider the sequence shown here: SAGGSAGGSAGGKHKIPITNVHVSPPNGYIHVTIRFPGDGKPIEIHFPVPPGEPITIEISAGGSAGGSAGGS [r10_940_TrROS] What is its recorded folding stability dG unfold?
Reply text: 2.74

Inquiry: Consider the sequence shown here: SAGGSAGGPPPVRVTIETETTTTFPNGTPRTTTNTVVLDAPEEEAEAAVAAIPASVVKSVARTGSAGGSAGG [r6_985_JUSTAS] What is its recorded folding stability dG unfold?
Reply text: -0.187

Inquiry: Consider the sequence shown here: SPKGIYIFMIQVKWKNPNGNEWTFPIMVPMDEMPEEELRDFIREFFPGFDDVDIEPQVMRIPPSPEAREKSA [r9_841_TrROS] What is its recorded folding stability dG unfold?
Reply text: 2.57

Inquiry: Consider the sequence shown here: SAGGSMTITITNEDGSTYEITVEEENGKLRITITVDGKTVEIEFDKETGKITIRYNGKTFTLTIKPSAGGSA [r2_194_TrROS_Hall] What is its recorded folding stability dG unfold?
Reply text: 5

Inquiry: Consider the sequence shown here: SAGMTTTLTKGEDGVTLTFDLPGQSVTLTVPVPPDVEVTTSFPATGTTITGTPVGDTLTITVTVPAPASAGG [r19_384_JUSTAS] What is its recorded folding stability dG unfold?
Reply text: 1.69

Inquiry: Consider the sequence shown here: SAGGKKPERVKITIMIPFDDPDKLRNFLRNHGFKVDEVEPNKEGMLAVEFEFPGYEIEIIIMDPGAMSAGGS [r16_170_TrROS] What is its recorded folding stability dG unfold?
Reply text: 3.35

Inquiry: Consider the sequence shown here: SAGGSAKVVEKDGKLVIELEVPPDMSEEELKKLAEELAKLLPPGAKIEVKYDKETKRVVIVVELKDSAGGSA [r15_210_TrROS_Hall] What is its recorded folding stability dG unfold?
Reply text: 1.79

Inquiry: Consider the sequence shown here: SAGGSAMTAEELARKLFPGAEVEVEVRLERNEDGSLSLRVEVRVRAAPPPEEEEVEEPEEVEEEEESAGGSA [r15_417_TrROS_Hall] What is its recorded folding stability dG unfold?
Reply text: 2.2
